Test system: breast cancer cell line, SK-Br3
method-description: Inhibitory effect on growth of cancer cell line SK-Br3, SRB
Format: cell-based
measurement-parameters: 72 hours, overexpressed EGFR2 (HER-2)
Returns: string. Value is Met if measured IC50 is below 300 nM, and Not met if it is greater than or equal to it.

Record excerpt, results attached:
{"compound": "C=CC(=O)Nc1cc2c(Nc3ccc(Br)cc3F)ncnc2cc1OCC(NC(=O)CN(C)C)C(C)C (stereo not shown) [Example 156]", "subject-of-test": "breast cancer cell line, SK-Br3", "class-label": "Not met"}
{"compound": "C=CC(=O)Nc1cc2c(Nc3ccc(Br)c(Cl)c3F)ncnc2cc1OCC(C)NC(=O)CN(C)C (stereo not shown) [Example 157]", "subject-of-test": "breast cancer cell line, SK-Br3", "class-label": "Met"}

q: Given C=CC(=O)Nc1cc2c(Nc3ccc(Br)c(Cl)c3F)ncnc2cc1OC[C@H](C)NC(=O)CN(C)C [Example 163] , is recorded IC50 strictly lower than 300 nM?
a: Met

q: Given C=CC(=O)Nc1cc2c(Nc3ccc(Br)c(F)c3)ncnc2cc1OCCNC(=O)CN(C)C [Example 79] , is recorded IC50 strictly lower than 300 nM?
a: Not met

q: Given C=CC(=O)Nc1cc2c(Nc3ccc(Br)c(Cl)c3F)ncnc2cc1OC[C@@H](C)NC(=O)CN(C)C [Example 159] , is recorded IC50 strictly lower than 300 nM?
a: Met

q: Given C=CC(=O)Nc1cc2c(Nc3ccc(Br)cc3F)ncnc2cc1OCCNC(=O)C1CCCN1C (stereo not shown) [Example 100] , is recorded IC50 strictly lower than 300 nM?
a: Met

q: Given C=CC(=O)Nc1cc2c(Nc3ccc(Br)cc3F)ncnc2cc1OCC(C)NC(=O)CN(C)C (stereo not shown) [Example 153] , is recorded IC50 strictly lower than 300 nM?
a: Met

q: Given C=CC(=O)Nc1cc2c(Nc3ccc(Br)c(Cl)c3F)ncnc2cc1OC[C@H](C)NC(=O)CN(C)C [Example 158] , is recorded IC50 strictly lower than 300 nM?
a: Not met

q: Given C=CC(=O)Nc1cc2c(Nc3ccc(Br)c(Cl)c3F)ncnc2cc1OC[C@@H](C)NC(=O)CN(C)C [Example 164] , is recorded IC50 strictly lower than 300 nM?
a: Met

q: Given C=CC(=O)Nc1cc2c(Nc3ccc(Br)c(Cl)c3)ncnc2cc1OCCNC(=O)CN(C)C [Example 152] , is recorded IC50 strictly lower than 300 nM?
a: Not met
